Give measured Efficacy (GABA)% for each item. Keep answers brief.
experimentalSystem: h-GABAA α2β2γ1 (Homo sapiens, UniProt P47869+Q8N1C3)
testName: Two-electrode voltage clamp electrophysiology in Xenopus oocytes, modulation of GABA EC20 current
Assay type: cell-based
Set-up: host or cells: Xenopus laevis oocytes, RNA micro-injection
measurementParameters: Table 2; % modulation of GABA EC20 = 100*(Fold increase−1); compound at approx. 30-fold Ki

Worked cases, Efficacy (GABA)% given:
{"columns": ["compound", "dataValue"],
 "data": [
  ["Cc1nnc2n1-c1ccc(Br)c(Cl)c1C(c1ncccc1F)=NC2 [Example 24]", "85%"],
  ["Fc1cccnc1C1=NCc2nnc(-c3ccncn3)n2-c2ccc(Cl)c(Cl)c21 [Example 55]", "59%"],
  ["Fc1cccc(F)c1C1=NCc2nnc(C3CCOCC3)n2-c2ccc(Cl)c(Cl)c21 [Example 11]", "60%"],
  ["COc1nnc2n1-c1ccc(Cl)c(Cl)c1C(c1c(F)cccc1F)=NC2 [Example 90]", "65%"],
  ["Fc1cccc(F)c1C1=NCc2nncn2-c2ccc(I)c(Cl)c21 [Example 34]", "81%"],
  ["Cc1ccc2c(c1Cl)C(c1c(F)cccc1F)=NCc1nncn1-2 [Example 17]", "70%"]
]}

Hey, quick one: what's Efficacy (GABA)% for each of these?
1. Cc1ccc2c(c1Cl)C(c1c(F)cccc1F)=NCc1nnc(-c3ccncn3)n1-2 [Example 49]
2. Fc1ccccc1C1=NCc2nnc(-c3ccncn3)n2-c2ccc(Cl)c(Cl)c21 [Example 18]
3. Cc1nnc2n1-c1ccc(Cl)c(Cl)c1C(c1ncccc1F)=NC2 [Example 71]

Response given:
1: 57%; 2: 70%; 3: 99%

====

experimentalSystem: h-GABAA α1β3γ2 (Homo sapiens, UniProt P14867+P18507)
Construct: expressed in transfected cells; host or cells: HEK293F cells, membranes
testName: Radioligand binding assay, [3H]Flumazenil competition, HEK293F membranes
measurementParameters: Table 1; Log[Ki α1β3γ2 (nM)/Ki α2β2γ1 (nM)]
measuredQuantity: LogSel
Numbers only.

Worked cases, LogSel given:
{"columns": ["smilesRepr", "experimentalSystem", "LogSel"],
 "data": [
  ["Fc1ccccc1C1=NCc2nncn2-c2ccc(Br)c(Cl)c21", "h-GABAA α1β3γ2 (Homo sapiens, UniProt P14867+P18507)", 1.08],
  ["Cn1cc(-c2nnc3n2-c2ccc(Cl)c(Cl)c2C(c2c(F)cccc2F)=NC3)cn1", "h-GABAA α1β3γ2 (Homo sapiens, UniProt P14867+P18507)", 1.49],
  ["Fc1cccc(F)c1C1=NCc2nnc(-c3ccncn3)n2-c2ccc(Br)c(Br)c21", "h-GABAA α1β3γ2 (Homo sapiens, UniProt P14867+P18507)", 1.95]
]}

Hey, quick one: what's LogSel for each of these?
1. Fc1ccccc1C1=NCc2nnc(-c3cccnn3)n2-c2ccc(Cl)c(Cl)c21
2. Cc1ccc2c(c1Cl)C(c1c(F)cccc1F)=NCc1nnc(C)n1-2
3. Cc1nnc2n1-c1ccc(Cl)c(Cl)c1C(c1c(F)cccc1F)=NC2

Response given:
1. 1.83
2. 1.09
3. 1.32

Hey, quick one: what's LogSel for each of these?
1. Fc1ccccc1C1=NCc2nnc(-c3ccncn3)n2-c2ccc(Cl)c(Cl)c21
2. COCCc1nnc2n1-c1ccc(Cl)c(Cl)c1C(c1c(F)cccc1F)=NC2
3. Fc1cccc(F)c1C1=NCc2nncn2-c2ccc(I)c(Cl)c21
4. O=c1[nH]nc2n1-c1ccc(Cl)c(Cl)c1C(c1c(F)cccc1F)=NC2
5. Cc1nnc2n1-c1ccc(C(F)(F)F)c(Cl)c1C(c1c(F)cccc1F)=NC2

Response given:
1.60
1.50
1.20
1.70
1.57

Hey, quick one: what's LogSel for each of these?
1. Fc1cccc(F)c1C1=NCc2nnc(C3CCOCC3)n2-c2ccc(Cl)c(Cl)c21
2. Fc1ccccc1C1=NCc2nnc(-c3cccnn3)n2-c2ccc(Br)c(Cl)c21
3. Cc1ccc2c(c1Cl)C(c1c(F)cccc1F)=NCc1nnc(-c3cccnn3)n1-2
4. Fc1cccnc1C1=NCc2nnc(C3CC3)n2-c2ccc(Br)c(Cl)c21
5. CC(F)(F)c1ccc2c(c1Cl)C(c1c(F)cccc1F)=NCc1nncn1-2
6. Fc1cccc(F)c1C1=NCc2nnc(-c3cccnn3)n2-c2ccc(Br)c(Cl)c21

Response given:
[1.15, 1.71, 2.06, 1.56, 1.54, 1.58]

Challenge: What does the record list as LogSel for Fc1ccccc1C1=NCc2nnc(C3CC3)n2-c2ccc(Br)c(Cl)c21 ?
Response given: 1.01

====

Give measured LogSel for each item. Keep answers brief.
experimentalSystem: h-GABAA α1β3γ2 (Homo sapiens, UniProt P14867+P18507)
Construct: expressed in transfected cells; host or cells: HEK293F cells, membranes
testName: Radioligand binding assay, [3H]Flumazenil competition, HEK293F membranes
measurementParameters: Table 1; Log[Ki α1β3γ2 (nM)/Ki α2β2γ1 (nM)]
One number for each entry.

Worked cases, LogSel given:
{"columns": ["smilesRepr", "dataValue"],
 "data": [
  ["Fc1cccnc1C1=NCc2nnc(-c3ccncn3)n2-c2ccc(C(F)(F)F)c(Cl)c21", 2.22],
  ["Cc1nnc2n1-c1ccc(C3CC3)c(Cl)c1C(c1c(F)cccc1F)=NC2", 1.01],
  ["Clc1cccnc1C1=NCc2nnc(-c3cccnn3)n2-c2ccc(Br)c(Cl)c21", 1.15]
]}

Hey, quick one: what's LogSel for each of these?
1. Cn1cc(-c2nnc3n2-c2ccc(C(F)(F)F)c(Cl)c2C(c2ncccc2F)=NC3)cn1
2. Fc1ccccc1C1=NCc2nnc(-c3cccnn3)n2-c2ccc(C(F)(F)F)c(Cl)c21
3. Fc1cccc(F)c1C1=NCc2nnc(-c3ccncn3)n2-c2ccc(Cl)c(Cl)c21
4. Fc1cccnc1C1=NCc2nnc(-c3cccnn3)n2-c2ccc(C(F)(F)F)c(Cl)c21

Response given:
1: 2.16; 2: 1.75; 3: 1.67; 4: 2.53

====

Give measured LogSel for each item. Keep answers brief.
experimentalSystem: h-GABAA α1β3γ2 (Homo sapiens, UniProt P14867+P18507)
Construct: expressed in transfected cells; host or cells: HEK293F cells, membranes
testName: Radioligand binding assay, [3H]Flumazenil competition, HEK293F membranes
measurementParameters: Table 3; Log[Ki α1β3γ2 (nM)/Ki α2β2γ1 (nM)]
Numbers only.

Worked cases, LogSel given:
{"columns": ["compound", "dataValue"],
 "data": [
  ["Cc1nnc2n1-c1ccc(Cl)cc1C(c1ccccc1)=NC2 [Alprazolam, reference compound]", "−2.3"],
  ["Cc1nnc2n1-c1ccc(Br)cc1C(c1c(F)cccc1F)=NC2 [RE-A, reference compound]", "−0.74"],
  ["Cc1ncc2n1-c1ccc(Cl)cc1C(c1ccccc1F)=NC2 [Midazolam, reference compound]", "−2.2"]
]}

Proceed to the following item.
Challenge: What does the record list as LogSel for Cc1nnc2n1-c1ccc(C(F)(F)F)cc1C(c1c(F)cccc1F)=NC2 [RE-B, reference compound] ?
Response given: −0.64

====

experimentalSystem: h-GABAA α1β3γ2 (Homo sapiens, UniProt P14867+P18507)
Construct: expressed in transfected cells; host or cells: HEK293F cells, membranes
testName: Radioligand binding assay, [3H]Flumazenil competition, HEK293F membranes
measurementParameters: Table 3; Log[Ki α1β3γ2 (nM)/Ki α2β2γ1 (nM)]
measuredQuantity: LogSel

{"columns": ["molecule", "LogSel"],
 "data": [
  ["Cc1nnc2n1-c1ccc(Br)c(Cl)c1C(c1c(F)cccc1F)=NC2", 1.3],
  ["Cc1nnc2n1-c1cccc(Cl)c1C(c1c(F)cccc1F)=NC2 [RE-G, reference compound]", 0.99]
]}

Proceed to the following item.
Challenge: Recall the recorded LogSel for Cc1nnc2n1-c1ccccc1C(c1c(F)cccc1F)=NC2 [RE-C, reference compound] with h-GABAA α1β3γ2 (Homo sapiens, UniProt P14867+P18507) and state it.
Response given: −2.0

====

experimentalSystem: h-GABAA α1β2γ1 (Homo sapiens, UniProt P14867+Q8N1C3)
testName: Radioligand binding assay, [3H]RO7239181 competition, HEK293F membranes
measuredQuantity: pKi
Numbers only, as −log10 of the molar value.

{"columns": ["molecule", "pKi"],
 "data": [
  ["Cc1nnc2n1-c1ccc(Cl)c(Cl)c1C(c1ccccc1F)=NC2 [Example 4]", 6.99]
]}

Hey, quick one: what's pKi for each of these?
1. Cn1cc(-c2nnc3n2-c2ccc(Cl)c(Cl)c2C(c2c(F)cccc2F)=NC3)cn1 [Example 28]
2. CC(F)(F)c1ccc2c(c1Cl)C(c1c(F)cccc1F)=NCc1nncn1-2 [Example 21]
3. COCCc1nnc2n1-c1ccc(Cl)c(Cl)c1C(c1c(F)cccc1F)=NC2 [Example 19]

Response given:
7.90
7.04
7.36

Challenge: Recall the recorded pKi for Cc1ccc2c(c1Cl)C(c1c(F)cccc1F)=NCc1nnc(-c3cccnn3)n1-2 [Example 48] with h-GABAA α1β2γ1 (Homo sapiens, UniProt P14867+Q8N1C3) and state it.
Response given: 7.68

Values were extracted from patent US20230141603A1.
